# TEST_SYSTEM: human PD-L1/His fusion protein (human, UniProt Q9NZQ7 19-239)
# Sequence (Q9NZQ7 19-239 limits assumed): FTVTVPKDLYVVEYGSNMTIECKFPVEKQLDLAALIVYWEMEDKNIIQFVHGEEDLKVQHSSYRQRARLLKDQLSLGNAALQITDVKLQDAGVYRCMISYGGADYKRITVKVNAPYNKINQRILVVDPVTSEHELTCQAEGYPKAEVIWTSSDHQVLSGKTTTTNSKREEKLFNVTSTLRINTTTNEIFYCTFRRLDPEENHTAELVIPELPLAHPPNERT
# PROTOCOL_SUMMARY: BLI off-rate; test group 2
Below, each entry is listed alongside its reported Off-Rate Ratio to that of EM0005-86c.
Quick reminder: number only, in %, skip the unit.

Quick note, Off-Rate Ratio to that of EM0005-86c for HuEM0005-86-10 (antibody, human IgG1, V domains shown) VH: EVQLVQSGAEVKKPGASVKVSCKASGYTFTTYGINWVRQAPGQGLEWMGYIYIGNGYTEYNEKFKGRVTLTSDTSTSTAYMELSSLRSDDTAVYYCARDLMVIAPKTMDYWGQGTTVTVSS VL: DIQMTQSPSSVSASVGDRVTITCKASQDVGTAVAWYQQKPGKSPKLLIYWASTRHTGVPDRFTGSGSGTDFTLTISSLQPEDFATYFCQQYSSYPYTFGGGTKVEIK landed at 88

Quick note, Off-Rate Ratio to that of EM0005-86c for HuEM0005-86-12 (antibody, human IgG1, V domains shown) VH: EVQLVQSGAEVKKPGASVKVSCKASGYTFTTYGINWVRQAPGQGLEWIGYIYIGNGYTEYNEKFKGKATLTSDTSTSTAYMELSSLRSDDTAVYYCARDLMVIAPKTMDYWGQGTTVTVSS VL: DIQMTQSPSSVSASVGDRVTITCKASQDVGTAVAWYQQKPGKSPKLLIYWASTRHTGVPDRFTGSGSGTDFTLTISSLQPEDFATYFCQQYSSYPYTFGGGTKVEIK landed at 84

Quick note, Off-Rate Ratio to that of EM0005-86c for HuEM0005-86-7 (antibody, human IgG1, V domains shown) VH: EVQLVQSGAEVKKPGASVKVSCKASGYTFTTYGINWVRQAPGQGLEWIGYIYIGNGYTEYNEKFKGRVTLTSDPSTRTAYMELSSLRSDDTAVYYCARDLMVIAPKTMDYWGQGTTVTVSS VL: DIQMTQSPSSVSASVGDRVTITCKASQDVGTAVAWYQQKPGKAPKLLIYWASTRHTGVPDRFTGSGSGTDFTLTISSLQPEDFATYYCQQYSSYPYTFGGGTKVEIK landed at 73

Quick note, Off-Rate Ratio to that of EM0005-86c for HuEM0005-86-8 (antibody, human IgG1, V domains shown) VH: EVQLVQSGAEVKKPGASVKVSCKASGYTFTTYGINWVRQAPGQGLEWMGYIYIGNGYTEYNEKFKGRVTMTTDTSTSTAYMELSSLRSDDTAVYYCARDLMVIAPKTMDYWGQGTTVTVSS VL: DIQMTQSPSSVSASVGDRVTITCKASQDVGTAVAWYQQKPGKSPKLLIYWASTRHTGVPDRFTGSGSGTDFTLTISSLQPEDFATYFCQQYSSYPYTFGGGTKVEIK landed at 87

Quick note, Off-Rate Ratio to that of EM0005-86c for HuEM0005-86-11 (antibody, human IgG1, V domains shown) VH: EVQLVQSGAEVKKPGASVKVSCKASGYTFTTYGINWVRQAPGQGLEWIGYIYIGNGYTEYNEKFKGRVTLTSDTSTSTAYMELSSLRSDDTAVYYCARDLMVIAPKTMDYWGQGTTVTVSS VL: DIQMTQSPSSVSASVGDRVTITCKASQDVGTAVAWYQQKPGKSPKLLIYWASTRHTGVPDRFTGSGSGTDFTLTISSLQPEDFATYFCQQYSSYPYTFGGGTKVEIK landed at 73

Quick note, Off-Rate Ratio to that of EM0005-86c for HuEM0005-86-9 (antibody, human IgG1, V domains shown) VH: EVQLVQSGAEVKKPGASVKVSCKASGYTFTTYGINWVRQAPGQGLEWMGYIYIGNGYTEYNEKFKGRVTMTSDTSTSTAYMELSSLRSDDTAVYYCARDLMVIAPKTMDYWGQGTTVTVSS VL: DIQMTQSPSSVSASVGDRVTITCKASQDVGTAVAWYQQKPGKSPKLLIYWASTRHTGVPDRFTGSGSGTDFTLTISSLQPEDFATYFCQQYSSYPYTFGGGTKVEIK landed at 89
